Cited source for all entries: ChEMBL document CHEMBL1134563

- System: E6SM
- Assay Overview: Effective concentration required to inhibit vesicular stomatitis virus(VSV) -induced cytopathicity by 50% in E6SM cell lines
- Format: functional, cell-based
- Measurement Context: Homo sapiens
pEC50: −log10 of the molar value.
Measured Endpoint: pEC50

C=C=CSC[C@H]1OC(n2cnc3c(N)ncnc32)[C@H](O)[C@@H]1O (some centres undefined) : < 3.60
C#CCSC[C@H]1OC(n2cnc3c(N)ncnc32)[C@H](O)[C@@H]1O (some centres undefined) : < 3.60

I have 2 compounds here; please give me pEC50 for each one.
1. CC#CSC[C@H]1OC(n2cnc3c(N)ncnc32)[C@H](O)[C@@H]1O (some centres undefined)
2. NC(=O)c1ncn([C@@H]2O[C@H](CO)[C@@H](O)[C@H]2O)n1 [RIBAVIRIN]

Found:
["< 3.60", 4.40]
